Measured IC50, listed per entry for reference.
Molecular target: UniProt:P00469
Sequence (P00469 whole entry): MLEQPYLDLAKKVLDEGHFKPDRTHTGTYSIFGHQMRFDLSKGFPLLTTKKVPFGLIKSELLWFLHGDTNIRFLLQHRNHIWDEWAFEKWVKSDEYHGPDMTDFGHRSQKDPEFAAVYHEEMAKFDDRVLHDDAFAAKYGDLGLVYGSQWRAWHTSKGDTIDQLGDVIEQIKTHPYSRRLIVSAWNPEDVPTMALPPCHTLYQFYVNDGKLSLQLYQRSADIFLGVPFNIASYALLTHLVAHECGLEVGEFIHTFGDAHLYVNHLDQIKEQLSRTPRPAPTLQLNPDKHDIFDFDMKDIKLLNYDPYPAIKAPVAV
Assay: Compound was evaluated for the inhibition at a given concentration against Lactobacillus casei Thymidylate synthase
Design: species or system Lacticaseibacillus casei
Please reply with the bare figure in µM and do not write the unit itself.

Known IC50 results, listed for orientation:
> print(dat)
                                   compound          target  outcome.measure  readout.number
1  Cc1[nH]c2nc(N)[nH]c(=O)c2c1CNCc1ccc(C(=O)N[C@H](CCC(=O)O)C(=O)O)cc1  UniProt:P00469             IC50             360
2  C#CCN(Cc1c(C)[nH]c2nc(N)nc(O)c12)c1ccc(C(=O)N[C@H](CCC(=O)O)C(=O)O)cc1  UniProt:P00469             IC50              90

Let us move to another entry and its IC50.
Report IC50 under test system UniProt:P00469 for Cc1[nH]c2nc(N)[nH]c(=O)c2c1Sc1ccc(C(=O)NC(CCC(=O)O)C(=O)O)cc1 (centres undefined) . 0.021

----------
Molecular target: Thymidylate synthase (Lactobacillus casei, UniProt P00469)
Assay: Compound was evaluated for the inhibition at a given concentration against Lactobacillus casei TS
Design: species or system Lacticaseibacillus casei
OUTCOME_MEASURE: IC50
Include the unit right after the number.

Give IC50 for Cc1[nH]c2nc(N)nc(O)c2c1CNc1ccc(C(=O)N[C@H](CCC(=O)O)C(=O)O)cc1 tested on Thymidylate synthase (Lactobacillus casei, UniProt P00469). 180 µM

----------
Molecular target: Thymidylate synthase (Homo sapiens, UniProt P04818)
Sequence (P04818 whole entry): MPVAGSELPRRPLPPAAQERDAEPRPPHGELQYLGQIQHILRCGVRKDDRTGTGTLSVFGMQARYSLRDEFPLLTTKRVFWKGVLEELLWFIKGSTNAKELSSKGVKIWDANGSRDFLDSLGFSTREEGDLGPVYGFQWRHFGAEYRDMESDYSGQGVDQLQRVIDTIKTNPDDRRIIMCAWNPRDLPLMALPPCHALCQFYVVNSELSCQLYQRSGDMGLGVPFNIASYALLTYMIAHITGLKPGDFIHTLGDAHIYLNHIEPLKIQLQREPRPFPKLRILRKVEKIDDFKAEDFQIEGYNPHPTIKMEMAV
Assay: Compound was evaluated for the inhibition at a given concentration against recombinant human Thymidylate synthase
OUTCOME_MEASURE: IC50

Name the recorded IC50 of Cc1[nH]c2nc(N)nc(O)c2c1CSc1ccncc1 , assay system Thymidylate synthase (Homo sapiens, UniProt P04818). > 25 µM

----------
Target: Thymidylate synthase (Homo sapiens, UniProt P04818)
Assay: Compound was evaluated for the inhibition at a given concentration against recombinant human TS
OUTCOME_MEASURE: IC50 (µM)
Write the number in µM without appending the unit.

Supply measured IC50 of Cc1[nH]c2nc(N)nc(O)c2c1CNc1ccc(C(=O)N[C@H](CCC(=O)O)C(=O)O)cc1 in your reply. 180
